# assaySystem: Endogenous BRD4 (NPC) (Homo sapiens, UniProt O60885)
# Construct: target engagement toward endogenous BRD4 derived from cellular lysates of cell types of interest; endogenous in cells
# experimentalDetails: CoraFluor TR-FRET ligand displacement, endogenous BRD4 in NPC lysate
# conditions: with 95% confidence interval, read-out: Endogenous BRD4 (NPC), KD,app
// values below are reported pKd
Please report pKd as the negative decimal logarithm of the molar concentration, giving only the number.

| compound | pKd |
| --- | --- |
| Cn1cc(-c2cc(F)cnc2Oc2ccc(F)cc2)c2cc[nH]c2c1=O [Compound 86A] | 6.25 |
| Cn1cc(-c2cccnc2Oc2ccc(F)c(F)c2)c2cc[nH]c2c1=O [Compound 81A] | 7.49 |

Turning now to a further record.
### Prompt Consider the compound Cn1ccc2c(-c3cccnc3Sc3ccc(F)cc3)c[nH]c2c1=O [Compound 84B] and give its measured pKd.
### Response 6.71

* * *

# assaySystem: Endogenous BRD4 (HEK293T) (Homo sapiens)
# Construct: target engagement toward endogenous BRD4 derived from cellular lysates of cell types of interest; endogenous in cells
# experimentalDetails: CoraFluor TR-FRET ligand displacement, endogenous BRD4 in HEK293T lysate
# conditions: with 95% confidence interval, read-out: Endogenous BRD4 (HEK293T), KD,app
attributeMeasured: Kd

Solved cases (4 shown):
| compound | attributeMeasured | result |
| --- | --- | --- |
| Cn1cc(-c2cccnc2Oc2ccc(F)c(F)c2)c2cc[nH]c2c1=O [Compound 81A] | Kd | 30 nM |
| Cn1ccc2c(-c3cccnc3Nc3ccc(F)cc3)c[nH]c2c1=O [Compound 85B] | Kd | 3910 nM |
| Cn1ccc2c(-c3cccnc3Oc3ccc(F)c(F)c3)c[nH]c2c1=O [Compound 81B] | Kd | 538 nM |
| Cn1cc(-c2cccnc2Oc2cc(F)cc(F)c2)c2cc[nH]c2c1=O [Compound 82A] | Kd | 49 nM |

### Prompt Consider the compound Cn1cc(-c2cccnc2Sc2ccc(F)cc2)c2cc[nH]c2c1=O [Compound 84A] and give its measured Kd.
### Response 370 nM

### Prompt Consider the compound Cn1ccc2c(-c3cccnc3Oc3cc(F)cc(F)c3)c[nH]c2c1=O [Compound 82B] and give its measured Kd.
### Response 519 nM

### Prompt Consider the compound Cn1ccc2c(-c3cccnc3Oc3ccc(F)cc3)c[nH]c2c1=O [Compound 18B] and give its measured Kd.
### Response 121 nM

### Prompt Consider the compound Cn1cc(-c2cccnc2Nc2ccc(F)cc2)c2cc[nH]c2c1=O [Compound 85A] and give its measured Kd.
### Response 93 nM

### Prompt Consider the compound Cn1cc(-c2cccnc2Oc2ccc(F)cc2)c2cc[nH]c2c1=O [Compound 18A] and give its measured Kd.
### Response 44 nM

### Prompt Consider the compound Cn1cc(-c2cc(F)cnc2Oc2ccc(F)cc2)c2cc[nH]c2c1=O [Compound 86A] and give its measured Kd.
### Response 559 nM

### Prompt Consider the compound Cn1ccc2c(-c3cc(F)cnc3Oc3ccc(F)cc3)c[nH]c2c1=O [Compound 86B] and give its measured Kd.
### Response 7150 nM

### Prompt Consider the compound Cn1ccc2c(-c3cccnc3Sc3ccc(F)cc3)c[nH]c2c1=O [Compound 84B] and give its measured Kd.
### Response 196 nM

Values from paper PMC11032351
